test.system: human SULT2A1 (Homo sapiens)
Sequence (Q06520 whole entry): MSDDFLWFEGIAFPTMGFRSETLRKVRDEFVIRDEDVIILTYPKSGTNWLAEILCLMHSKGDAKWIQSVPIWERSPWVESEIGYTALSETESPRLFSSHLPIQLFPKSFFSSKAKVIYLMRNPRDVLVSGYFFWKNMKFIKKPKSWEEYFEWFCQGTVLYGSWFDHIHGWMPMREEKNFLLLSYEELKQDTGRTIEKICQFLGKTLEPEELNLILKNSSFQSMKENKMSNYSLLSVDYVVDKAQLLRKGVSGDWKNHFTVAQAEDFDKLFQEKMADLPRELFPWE
Type: biochemical
condition.details: 0.4 μM substrate; 2 μM 35S-PAPS for 6D-E2, 20 μM PAPS for the others
Parameter: rate of 3-sulfate formation in the absence of celecoxib. Scope: all listed entries.
metric.name: rate of 3-sulfate formation in the absence of celecoxib (pmol/min/mg protein)

>>> numeric_result("C[C@]12CC[C@@H]3c4ccc(O)c(O)c4CC[C@H]3[C@@H]1CC[C@@H]2O [4-OH-E2, 4-hydroxyestradiol]")
15
>>> numeric_result("C[C@]12CCc3c(ccc4cc(O)ccc34)[C@@H]1CC[C@@H]2O [17β-Eqn, 17β-dihydroequilenin]")
56
>>> numeric_result("C[C@]12CC[C@@H]3c4ccc(O)cc4C=C[C@H]3[C@@H]1CC[C@@H]2O [6D-E2, 6-dehydroestradiol]")
51
